Value source: the supplement of paper PMC11865577

Test system: TO-N3 (biotin conjugate)
Test: pull-down binding Z-score (relative to library population); higher = stronger binding
Conditions: RNA library: Library-2
Quick rule: pull-down binding Z-score of at least -0.2 means true, below that means false.

hey, is pull-down binding Z-score for this one >= -0.2? GAAUUCGCUUUAUUUAUGUUGAAUC [hsa-mir-377]
false

Proceed to `UUACACCACUGGGCAUUGAUUUAGAUGAGUGGAGUAUGGCUACAUACUACUUAUUUGAUGAGUCUGGUGAGUUUAA`
false

Proceed to CGAGAAGCGCCUGCGUCUCCCAUUUUCG [hsa-mir-3944]
true

Proceed to ACCAAAAAUGAUAUGGGU [hsa-mir-7977]
false

Proceed to UAAACACGCUUGUUAAACAACUUAGCUCCAAUUUUGGUGCAAUUUCAAGUGUUUUA [SHAPE_invitro_SARS-CoV-2_Motif_443]
false

Proceed to ACCACUGUGAAGACAGUAAAAUGUACAGUGGU [hsa-mir-597]
false

Proceed to `UGUAAAUCACAUAAACCACCCAUUAGUUUUCCAUUGUGUGCUAAUGGACAAGUUUUUGGUUUAUA`
false

Proceed to `GGUUAUAAGAAACC`
false

Proceed to CUGGGUGGGACACUCAG [hsa-mir-4692]
true

Proceed to GGUUGGGAGAAGAGCAACAGCC [IAV_invivo_PB2_1_Motif_16+IAV_invivo_PB2_1_Motif_16]
true

Proceed to UGGUACUAUCUAUACAGAACUGGAACCA [SHAPE_invitro_SARS-CoV-2_Motif_233]
false

Proceed to `GUUUGUCUUAGUGGUUUAGAUUCUUUAGACACCUAUCCUUCUUUAGAAACUAUACAAAU`
true

Proceed to `UGUCAUUACUUCAGGUGAUGGCA`
true

Proceed to UCUUAGCACGGGGUCUAAGG [hsa-mir-4747]
false

Proceed to `ACGUGGCUUUGGAGACUCCGUGGAGGAGGUCUUAUCAGAGGCACGU`
true

Proceed to ACAGUGGACUUGGUGACGCUGU [hsa-mir-675]
false

Proceed to AGGUUCUGCUGGCUGAGAACCU [hsa-mir-3667]
true

Proceed to `GUUCAGAGUUUAUUCUAGUGCGAAUAAUUGCACUUUUGAAUAUGUCUCUCAGC`
false

Proceed to GAUGUAAUUAUCUUGGCAAACCACGCGAACAAAUAGAUGGUUAUGUC [DMSMaPseq_invitro_SARS-CoV-2_Motif_374]
false

Proceed to UCAUUUAUGUGAACUAAAAUAUAAAUUU [hsa-mir-513a-2_513a-1]
false

Proceed to UUUUUUUCGCUUUAUUUGUGACGAAAC [hsa-mir-543]
false

Proceed to GAUGGGAUUAGAAACCAUAUGUCUCAUC [hsa-mir-3617]
false

Proceed to AGUUGCUUACUCUAAUAACU [DMSMaPseq_invitro_SARS-CoV-2_Motif_421]
false

Proceed to GUGUUUGUGACAUAAUUUGU [hsa-mir-325]
true

Proceed to GCCUCUCUGAGCAUGCAUUCCUGAGACUC [hsa-mir-5695]
true

Proceed to AAUGUCAGGGCCACCCCUGACCUU [hsa-mir-6837]
false

Proceed to AGCUGGCUGAAGGGCAGAAGGGAACUGUCCUUCAGCCAGAG [hsa-mir-4487]
false

Proceed to ACAGGUAGUGGCCACAGUGAGAAAGCUGGCCUGUCCUUCUGC [hsa-mir-4314]
true

Proceed to AUGUUCACUUGAUUAAUGGCGAAUAU [hsa-mir-1185-2_1185-1]
false

Proceed to UCUUUAUUUGACAUGAGUAAAUUUCCCCUUAAAUUAAGGGGUACUGCUGUUAUGUCUUUAAAAGA [SHAPE_invitro_SARS-CoV-2_Motif_387]
false

Proceed to ACAGCAGUCUUACUGAAGGUUUCCUGGAAACCACGCACAUGCUGU [hsa-mir-744]
true

Proceed to GGAUUUGCUUCCUGUCACAAAUCA [hsa-mir-23a]
true

Proceed to UUUGCAUCUGGACGACGAAU [hsa-mir-409]
true

Proceed to GGAGUUGAUGCACAGUUAUCCAGCUCC [hsa-mir-337]
false

Proceed to GUUCUAAGUAUUGCUCCAAUAAUGUUCUCAAACAAAAUGGCGAGACUGGGAAAAGGGUAUAUGUUUGAGAGCAAGAGUAUGAAACUUAGAAC [IAV_invivo_PB1_2_Motif_18+IAV_invivo_PB1_2_Motif_18]
true

Proceed to GACCUGGAUGUGUAGGAGCUAAGACACACUCCAGGGG [hsa-mir-920]
true

Proceed to `AUUGGUGCAGGUAUAUGCGCUAGU`
false

Proceed to AAUCCCUCUCUUUCUAGUUCUUCCUAGAGUGAGGAAAA [hsa-mir-320b-1]
false

Proceed to UCACUCACUGAGUGA [IAV_invivo_NP_5_Motif_1+IAV_invivo_NP_5_Motif_1]
false

Proceed to `GCAAAUUGCACAAUUUGC`
true
